compounds and their reported Kb
system: UniProt:P47871
procedure text: Glucagon cAMP Assay
Assay type: cell-based
condition label: CHOK1 cells stably transfected with the human glucagon receptor; 100 pM glucagon challenge; Kb from IC50 by modified Cheng-Prusoff equation

Example compounds with recorded Kb:
CC(C)CC(Nc1cnc2ccccc2c1)c1ccc(C(=O)NCCC(=O)O)cc1 (racemic) [Example 3]    0.27 µM
Cc1nc2ccccc2nc1NC(CC(C)C)c1ccc(C(=O)NCCC(=O)O)cc1 (racemic) [Example 8]    1 µM
CC(C)CC(Nc1ncc2ccc(F)cc2n1)c1ccc(C(=O)NCCC(=O)O)cc1 (racemic) [Example 4]    5.1 µM

Now look at this one.
Reported Kb ( Cc1cc2ccccc2nc1NC(CC(C)C)c1ccc(C(=O)NCCC(=O)O)cc1 (single isomer, unassigned; isomer 1) [Example 30] ) = 0.069 µM

* * *

system: human glucagon receptor (Homo sapiens (Human), UniProt P47871)
Sequence (P47871 26-477): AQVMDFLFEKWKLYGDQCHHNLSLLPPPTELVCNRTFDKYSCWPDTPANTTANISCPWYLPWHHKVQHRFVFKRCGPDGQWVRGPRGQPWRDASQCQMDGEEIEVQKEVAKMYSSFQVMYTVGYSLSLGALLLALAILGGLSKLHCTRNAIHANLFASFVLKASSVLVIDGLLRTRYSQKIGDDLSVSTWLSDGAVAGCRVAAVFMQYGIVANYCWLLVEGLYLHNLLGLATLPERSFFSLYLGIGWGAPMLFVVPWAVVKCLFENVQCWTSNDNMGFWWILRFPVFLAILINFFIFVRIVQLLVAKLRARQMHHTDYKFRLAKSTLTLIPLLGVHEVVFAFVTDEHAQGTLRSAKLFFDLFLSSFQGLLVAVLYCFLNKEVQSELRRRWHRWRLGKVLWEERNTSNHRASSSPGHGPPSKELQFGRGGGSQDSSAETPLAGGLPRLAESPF
Where a name gives a salt, the structure may show the parent alone.
compounds and their reported Ki
Reply numerically in nM, unit not repeated.

Example compounds with recorded Ki:
Cc1cc2ccccc2nc1NC(CC(C)C)c1ccc(C(=O)NCCC(=O)O)cc1 (racemic) [Example 11]    101
Cc1cc2cc(F)ccc2nc1NC(c1ccc(C(=O)NCCC(=O)O)cc1)C1CC(C)(C)C1 (single isomer, unassigned; isomer 2) [Example 35]    14
CC(C)CC(Nc1cc2ccccc2cn1)c1ccc(C(=O)NCCC(=O)O)cc1 (racemic) [Example 9, trifluoroacetate]    531

Ki value, target or system human glucagon receptor (Homo sapiens (Human), UniProt P47871), for Cc1cc2ccccc2nc1NC(CC(C)C)c1ccc(C(=O)NCCC(=O)O)cc1 (single isomer, unassigned; isomer 2) [Example 31] : 1240

Ki value, target or system human glucagon receptor (Homo sapiens (Human), UniProt P47871), for O=C(O)CCNC(=O)c1ccc(C(CCC(F)(F)F)Nc2cnc3ccccc3c2)cc1 (racemic) : 930

Ki value, target or system human glucagon receptor (Homo sapiens (Human), UniProt P47871), for CC(C)CC(Nc1ncc2ccc(F)cc2n1)c1ccc(C(=O)NCCC(=O)O)cc1 (racemic) : 7360

Ki value, target or system human glucagon receptor (Homo sapiens (Human), UniProt P47871), for Cc1cc2ccccc2nc1NC(c1ccc(C(=O)NCCC(=O)O)cc1)C1CC(C)(C)C1 (single isomer, unassigned; isomer 1) : 53

* * *

system: UniProt P47871
procedure text: Glucagon cAMP Assay
Format: cell-based
condition label: CHOK1 cells stably transfected with the human glucagon receptor; 100 pM glucagon challenge; Kb from IC50 by modified Cheng-Prusoff equation
measure name: Kb (nM)
Reply numerically in nM, unit not repeated.

Example molecules with recorded Kb:
COc1cccc2ccc(NC(CC(C)C)c3ccc(C(=O)NCCC(=O)O)cc3)nc12 (racemic)    620
Cc1cc(NC(CC(C)C)c2ccc(C(=O)NCCC(=O)O)cc2)nc2cc(F)ccc12 (racemic)    310
CC(C)CC(Nc1ccc2ccccc2n1)c1ccc(C(=O)NCCC(=O)O)cc1 (racemic)    380

Now look at this one.
Reported Kb ( Cc1nc2ccccc2cc1NC(CC(C)C)c1ccc(C(=O)NCCC(=O)O)cc1 (stereo not shown) ) = 880

* * *

system: human glucagon receptor (Homo sapiens (Human), UniProt P47871)
procedure text: Glucagon cAMP Assay
Assay type: cell-based
condition label: CHOK1 cells stably transfected with the human glucagon receptor; 100 pM glucagon challenge; Kb from IC50 by modified Cheng-Prusoff equation
Counter-ions that a name gives are not always drawn.
measure name: Kb (nM)
Reply numerically in nM, unit not repeated.

CC1(C)CC(C(Nc2cnc3cc(F)ccc3c2)c2ccc(C(=O)NCCC(=O)O)cc2)C1 (racemic)    47
CCC[C@H](Nc1nc2ccccc2cc1C)c1ccc(C(=O)NCCC(=O)O)cc1    520
CC(C)CC(Nc1cc2ccccc2cn1)c1ccc(C(=O)NCCC(=O)O)cc1 (racemic) [Example 9, trifluoroacetate]    450

Now look at this one.
Kb value, target or system human glucagon receptor (Homo sapiens (Human), UniProt P47871), for CC(C)CC(Nc1ccc2cc(C(F)(F)F)ccc2n1)c1ccc(C(=O)NCCC(=O)O)cc1 (racemic) : 800
